- Method description: gradient 5% acetonitrile 3 min, to 50% in 2 min, to 85% in 15 min, held 3 min, 100 µL/min
- Measurement setup: column: Zorbax Extend-C18 2.1 x 50 mm; eluents: water / acetonitrile, 0.1% formic acid
The recorded RP-LC retention time of each item maps onto one of these classes: one: < 800 s; two: ≥ 800 s and < 1000 s; three: ≥ 1000 s

These recorded examples may help you get a feel for the data.
Compound	Class
CCOCCCNC(=O)N1CCC2(CC1)Nc1cc(F)ccc1-n1cccc12	two
Cc1sc(-c2cc(C(F)(F)F)[nH]n2)cc1S(=O)(=O)N1CCN(c2ccccn2)CC1	one
CCn1c(C(=O)NCCc2ccc(S(N)(=O)=O)cc2)cc2sc(Cl)cc21	two

Tag the class for COCCCNc1nccc(-n2nc(C)cc2C)n1
one

Tag the class for Cc1ccc(-c2noc(-c3nnn4c3COC(c3ccc(Cl)cc3)C4)n2)cc1 (centres undefined)
three

---

- Method description: gradient 5% acetonitrile 3 min, to 50% in 2 min, to 85% in 15 min, held 3 min, 100 µL/min
- Measurement setup: column: Zorbax Extend-C18 2.1 x 50 mm; eluents: water / acetonitrile, 0.1% formic acid
RP-LC retention time values, listed per item
Numeric only. Scale: s

Known results for compounds:
Compound	RP-LC retention time, s
COc1ccc(OCc2nc(-c3cccc(-c4ccnn4C)c3)no2)cc1	1010
O=C(N[C@H]1C[C@@H]2C[C@H]1N(S(=O)(=O)c1cc(F)cc(F)c1)C2)c1ccccc1	870
CCN(C(=O)c1ccccc1Br)c1nc(-c2ccccc2)cs1	1330
Cc1ccc(CNC(=O)Cn2nc(C)c3nn(-c4ccc(Cl)cc4)c(-n4cccc4)c3c2=O)o1	1040
CC(C)n1cnc2ccc(-c3noc(-c4cccc(C#N)c4)n3)cc21	761
O=C(c1ccc(-c2ccc3c(c2)CCN3S(=O)(=O)c2ccccc2F)cc1)N1CCOCC1	899
Cc1ccc(S(=O)(=O)N2CC(c3nc(C)no3)C3(CCOCC3)C2)cc1 (centres undefined)	845
O=C(CN1CCN(Cc2ccccc2)C1=O)N1CCN(c2ccccc2F)CC1	824

For the compound shown here, O=C(NCCc1csc(-c2cccs2)n1)C1CCN(C(=O)c2cccc(Cl)c2)CC1 , give the reported RP-LC retention time.
839

For the compound shown here, CCCCN(C)C(=O)c1sc(Nc2ccccn2)nc1C , give the reported RP-LC retention time.
777

For the compound shown here, COCC(=O)N1CCC(Oc2nccnc2N2CCOCC2)C1 (centres undefined) , give the reported RP-LC retention time.
584

For the compound shown here, Cc1ccc(NC(=O)C2CCN(S(=O)(=O)c3ccc4c(c3)NC(=O)C(C)O4)CC2)c(Cl)c1 (centres undefined) , give the reported RP-LC retention time.
812

For the compound shown here, Cn1cnc(S(=O)(=O)N2CCC(c3noc(-c4ccccn4)n3)C2)c1 (centres undefined) , give the reported RP-LC retention time.
622

For the compound shown here, O=C(NCCc1cccs1)C1CCN(C(=O)c2ncn3c2COC(c2ccc(Cl)cc2)C3)CC1 (centres undefined) , give the reported RP-LC retention time.
808

For the compound shown here, Cc1cnc(C2CC2)n1C1CCN(C(=O)C2(c3ccccc3)CC2)CC1 , give the reported RP-LC retention time.
636

For the compound shown here, COc1cc(NC(=O)N2CCC(n3c(C(F)(F)F)nc4cccnc43)CC2)cc(OC)c1 , give the reported RP-LC retention time.
895

For the compound shown here, CC(C)CCNC(=O)NCCc1nc2cccnc2n1Cc1ccccc1 , give the reported RP-LC retention time.
726

For the compound shown here, Cc1cc(C)cc(-c2nnc(Cc3nc(-c4cccc(Cl)c4)no3)o2)c1 , give the reported RP-LC retention time.
1230

For the compound shown here, C=CCNC(=O)c1cnn(-c2cc(-c3nc(CC)no3)ccn2)c1C , give the reported RP-LC retention time.
845

---

- Method description: gradient 5% acetonitrile 3 min, to 50% in 2 min, to 85% in 15 min, held 3 min, 100 µL/min
- Measurement setup: column: Zorbax Extend-C18 2.1 x 50 mm; eluents: water / acetonitrile, 0.1% formic acid
Labelling: RP-LC retention time reported below 800 s becomes true (1); at or above becomes false (0).

Please check: RP-LC retention time for O=C(Cn1ncc2c(c1=O)N(C1CC1)C(=O)CS2)Nc1ccc2c(c1)OCCO2 , strictly under 800 s or not?
true (1)

Please check: RP-LC retention time for COc1ccc(-n2ccc(=O)c(-c3nc(-c4ccccc4)no3)n2)cc1 , strictly under 800 s or not?
false (0)

Please check: RP-LC retention time for Cc1c(Cl)cccc1Nc1c(-c2ccc(N3CCOCC3)cc2)nc2cnccn12 , strictly under 800 s or not?
false (0)

Please check: RP-LC retention time for Cn1c(N2CCCC(C(=O)N3CCN(c4cccc(C(F)(F)F)c4)CC3)C2)cc(=O)n(C)c1=O (centres undefined) , strictly under 800 s or not?
false (0)

Please check: RP-LC retention time for Cc1ccc(N2C(=O)C3N=NN(Cc4nc(-c5ccc(OC(C)C)cc5)no4)C3C2=O)cc1Cl (centres undefined) , strictly under 800 s or not?
false (0)

Please check: RP-LC retention time for COc1nc2ccccc2nc1N1CCCC(C(=O)NC2CCCC2)C1 (centres undefined) , strictly under 800 s or not?
false (0)

---

- Method description: gradient 5% acetonitrile 3 min, to 50% in 2 min, to 85% in 15 min, held 3 min, 100 µL/min
- Measurement setup: column: Zorbax Extend-C18 2.1 x 50 mm; eluents: water / acetonitrile, 0.1% formic acid
Assay readout: RP-LC retention time (s)
Numeric only. Scale: s

For the compound shown here, CCN1CCCC1CNC(=O)Cn1c2ccccc2c2cnn(C)c(=O)c21 (stereo not given) , give the reported RP-LC retention time.
554

For the compound shown here, O=C1CCc2cc(NS(=O)(=O)Cc3ccccc3Cl)ccc2N1 , give the reported RP-LC retention time.
783

---

RP-LC retention time values, listed per item
- Method description: gradient 5% acetonitrile 3 min, to 50% in 2 min, to 85% in 15 min, held 3 min, 100 µL/min
- Measurement setup: column: Zorbax Extend-C18 2.1 x 50 mm; eluents: water / acetonitrile, 0.1% formic acid
Numeric only. Scale: s

Compound	RP-LC retention time (s)
CC(C(=O)N1CCOCC1)C1CCN(C(=O)c2ccc3nc(-c4ccccc4)oc3c2)CC1 (stereo not given)	718

For the compound shown here, O=S(=O)(Nc1cccc(Cl)c1)c1ccc(-c2nnc(C3CCC3)o2)o1 , give the reported RP-LC retention time.
967

For the compound shown here, COc1cccc(S(=O)(=O)N2CCCN(S(=O)(=O)c3ccccc3)CCC(=O)NCC2)c1 , give the reported RP-LC retention time.
805

For the compound shown here, C=CCn1nnc(NCc2ccc(-c3ccc(Cl)cc3Cl)o2)n1 , give the reported RP-LC retention time.
1160

For the compound shown here, COc1ccc(OC)c(S(=O)(=O)N2CCc3c(c(-c4nnc(-c5ccccc5)o4)nn3C)C2)c1 , give the reported RP-LC retention time.
912

---

- Method description: gradient 5% acetonitrile 3 min, to 50% in 2 min, to 85% in 15 min, held 3 min, 100 µL/min
- Measurement setup: column: Zorbax Extend-C18 2.1 x 50 mm; eluents: water / acetonitrile, 0.1% formic acid
RP-LC retention time values, listed per item
Numeric only. Scale: s

Compound	Assay readout	Unit info	Observed value
Cc1ccccc1Cn1cc(-c2ccncc2)cc1C(=O)NCC1CCCO1 (centres undefined)	RP-LC retention time	s	667

For the compound shown here, CC1=C(c2ccc(C)c(C)c2)S(=O)(=O)N=C1N1CCCN(C(=O)NC(C)C)CC1 , give the reported RP-LC retention time.
787

For the compound shown here, Cc1noc(-c2ccc(-n3ncc(C(=O)NCCC(C)C)c3C)nc2)n1 , give the reported RP-LC retention time.
943

For the compound shown here, COC(=O)c1ccc(CSc2nnc(-c3cn(C)nc3OC)n2C)cc1 , give the reported RP-LC retention time.
641

For the compound shown here, Cc1nc2cc(N3CC(C(=O)Nc4ccc(Cl)cc4F)CC3=O)ccc2o1 (centres undefined) , give the reported RP-LC retention time.
787

For the compound shown here, CCN1C(=O)C2CCCCN2c2ccc(C(=O)N3CCN(c4ccccc4)CC3)cc21 (centres undefined) , give the reported RP-LC retention time.
974

For the compound shown here, COc1ccc(C(=O)N2CCCC2c2nc(-c3cccc(C)c3)no2)cn1 (centres undefined) , give the reported RP-LC retention time.
947

For the compound shown here, CCc1noc(NC(C)=O)c1-c1ccc(C)c(S(=O)(=O)N2CCN(c3ccccc3F)CC2)c1 , give the reported RP-LC retention time.
723

For the compound shown here, COc1cc(NC(=O)C2CCCN(c3nnc4ccccn34)C2)cc(OC)c1OC (centres undefined) , give the reported RP-LC retention time.
634
